molecular target: TYK2 (Homo sapiens, UniProt P29597); assay: TYK2 degradation MSD assay in EBV-B cells; format: cell-based; set-up: endogenous in cells; host or cells: EBV-B cells; details: 4 to 24 hours incubation, read-out: TYK2 MSD DC50 rating in EBV-B
Sequence (P29597 whole entry): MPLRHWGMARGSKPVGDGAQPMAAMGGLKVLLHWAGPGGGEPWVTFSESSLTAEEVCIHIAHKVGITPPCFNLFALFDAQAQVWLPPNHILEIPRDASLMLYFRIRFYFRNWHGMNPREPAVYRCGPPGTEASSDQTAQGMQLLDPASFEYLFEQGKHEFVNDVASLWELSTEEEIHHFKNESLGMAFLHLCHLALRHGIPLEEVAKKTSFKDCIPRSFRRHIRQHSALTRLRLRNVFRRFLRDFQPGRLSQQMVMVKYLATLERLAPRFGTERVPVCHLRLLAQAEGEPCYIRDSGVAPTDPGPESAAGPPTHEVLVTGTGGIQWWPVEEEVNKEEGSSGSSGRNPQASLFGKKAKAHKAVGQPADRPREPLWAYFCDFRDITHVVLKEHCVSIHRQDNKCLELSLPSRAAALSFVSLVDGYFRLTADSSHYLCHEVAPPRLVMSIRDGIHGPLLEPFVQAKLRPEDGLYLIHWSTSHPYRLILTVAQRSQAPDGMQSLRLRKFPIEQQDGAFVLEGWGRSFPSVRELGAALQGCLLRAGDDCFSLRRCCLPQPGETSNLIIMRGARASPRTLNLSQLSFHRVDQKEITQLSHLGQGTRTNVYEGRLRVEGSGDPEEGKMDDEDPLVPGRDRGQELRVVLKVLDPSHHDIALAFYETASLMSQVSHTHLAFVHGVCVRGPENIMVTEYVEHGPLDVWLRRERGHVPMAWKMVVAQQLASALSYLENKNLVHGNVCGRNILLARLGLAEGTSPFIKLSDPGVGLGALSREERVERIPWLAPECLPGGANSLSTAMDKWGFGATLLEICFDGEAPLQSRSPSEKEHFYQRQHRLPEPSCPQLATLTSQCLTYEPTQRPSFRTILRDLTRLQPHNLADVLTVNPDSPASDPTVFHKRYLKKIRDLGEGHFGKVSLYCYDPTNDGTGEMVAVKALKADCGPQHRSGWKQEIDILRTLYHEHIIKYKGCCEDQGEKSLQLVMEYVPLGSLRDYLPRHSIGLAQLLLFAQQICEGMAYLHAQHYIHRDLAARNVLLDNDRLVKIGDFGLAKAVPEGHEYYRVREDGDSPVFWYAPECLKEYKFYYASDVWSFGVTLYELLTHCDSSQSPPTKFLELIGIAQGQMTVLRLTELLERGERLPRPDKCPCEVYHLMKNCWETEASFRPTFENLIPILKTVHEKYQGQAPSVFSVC
Reported DC50 values are given for each entry in this list.

Below, 2 compounds whose answers are already recorded.
compound: CNc1cc(Nc2cccn(-c3ccc(C(=O)NCCOCCOCCOCCOCCNc4cncc(N5CCCC(C(=O)Nc6ccc(=O)n(CC(=O)OC)c6)C5)c4)cn3)c2=O)nn2c(C(=O)N[C@@H]3C[C@@H]3F)cnc12 (stereo partly shown) [Example K618]
testSystem: TYK2 (Homo sapiens, UniProt P29597)
testResult: > 100 nM

compound: CNc1cc(Nc2cccc(-c3ccc(CN4CCN(C5CCC(c6ccc(-c7ccc8c(c7)n(C)c(=O)n8C7CCC(=O)NC7=O)cc6)CC5)CC4)cn3)c2)nn2c(C(=O)N[C@@H]3C[C@@H]3F)cnc12 (stereo partly shown) [Example K463]
testSystem: TYK2 (Homo sapiens, UniProt P29597)
testResult: > 100 nM

# input compound: CNc1cc(Nc2cccn(-c3ccc(C(=O)N4CCC5(CCN(c6cnc(C#Cc7ccc8c(c7)n(C)c(=O)n8C7CCC(=O)NC7=O)nc6)C5=O)C4)cn3)c2=O)nn2c(C(=O)N[C@@H]3C[C@@H]3F)cnc12 (stereo partly shown) [Example K409] ; wanted: its DC50 > 100 nM

Also CNC(=O)c1cnc(Nc2ccc(CN3CCC(N(C)c4ccc5c(c4)n(C)c(=O)n5C4CCC(=O)NC4=O)C3)cn2)cc1Nc1cccc(-c2ncc(F)cn2)c1OC (stereo not shown) [Example K164] ? < 1 nM

Can you handle CNc1cc(Nc2cccc(-c3ccc(CN4CC5(CCN(c6cccc7c6n(C)c(=O)n7C6CCC(=O)NC6=O)CC5)C4)cn3)c2)nn2c(C(=O)N[C@@H]3C[C@@H]3F)cnc12 (stereo partly shown) [Example K464] next? > 100 nM

// query: CNc1cc(-c2cnn(C3CN(C(=O)NCCCCCCCCc4ccc5c(c4)n(C)c(=O)n5C4CCC(=O)NC4=O)C3)c2)nn2c(C(=O)NC3C[C@@H]3F)cnc12 (stereo partly shown) [Example K318] > 100 nM

Next compound: CNc1cc(Nc2cccn(-c3cccc(C(=O)NCCCCCCCCc4cccc5c4n(C)c(=O)n5C4CCC(=O)NC4=O)c3)c2=O)nn2c(C(=O)N[C@@H]3C[C@@H]3F)cnc12 (stereo partly shown) [Example K224] > 100 nM

* * *

Reported DC50 by item:
target: TYK2 (Homo sapiens, UniProt P29597); experiment: TYK2 degradation MSD assay in EBV-B cells; type: cell-based; parameters: endogenous in cells; host or cells: EBV-B cells; details: 4 to 24 hours incubation, read-out: TYK2 MSD DC50 rating in EBV-B

Use these answered entries as a reference point.
compound: CNc1cc(Nc2cccn(-c3ccc(C(=O)N4CCC5(CC4)CCN(c4ccc6c(c4)n(C)c(=O)n6C4CCC(=O)NC4=O)C5)cn3)c2=O)nn2c(C(=O)N[C@@H]3C[C@@H]3F)cnc12 (some centres unmarked) [Example K392]
DC50: > 100 nM

compound: CNc1cc(Nc2cccc(C3CCN(CC4CCN(c5ccc(-c6cccc7c6n(C)c(=O)n7C6CCC(=O)NC6=O)cc5)CC4)CC3)c2OC)nn2c(C(=O)N[C@@H]3C[C@@H]3F)cnc12 (mixture of isomers) [Example K538]
DC50: > 100 nM

compound: Cn1c(=O)n(C2CCC(=O)NC2=O)c2ccc(CCCCNC(=O)c3ccccc3Nc3ccc4ncc(C(=O)N[C@@H]5C[C@@H]5F)n4n3)cc21 (some centres unmarked) [Example K326]
DC50: > 100 nM

compound: CNc1cc(Nc2cccn(-c3ccc(C(=O)N4CCC(CC#Cc5cccc6c5n(C)c(=O)n6C5CCC(=O)NC5=O)CC4)cn3)c2=O)nn2c(C(=O)N[C@@H]3C[C@@H]3F)cnc12 (some centres unmarked) [Example K331]
DC50: > 100 nM

compound: CNc1cc(-c2ccc(C(=O)NCCCCCCc3ccc4c(c3)n(C)c(=O)n4C3CCC(=O)NC3=O)cc2)nn2c(C(=O)N[C@@H]3C[C@@H]3F)cnc12 (some centres unmarked) [Example K298]
DC50: > 100 nM

compound: CNc1cc(Nc2cccc(N3CCN(CC4CCN(c5ccc(-c6ccc7c(c6)n(C)c(=O)n7C6CCC(=O)NC6=O)cc5)CC4)CC3)c2)nn2c(C(=O)N[C@@H]3C[C@@H]3F)cnc12 (some centres unmarked) [Example K466]
DC50: < 1 nM

Field request: DC50 | item: CNc1cc(-c2cn(C)c3c(-c4ccc(CN5CCN(c6ccc(-c7ccc8c(c7)n(C)c(=O)n8C7CCC(=O)NC7=O)cc6)CC5)cc4)cccc23)nn2c(C(=O)N[C@@H]3C[C@@H]3F)cnc12 (some centres unmarked) [Example K532] > 100 nM

Same question for CNC(=O)c1cnc(Nc2ccc(CN3CCC(c4ccc5c(c4)n(C)c(=O)n5C4CCC(=O)NC4=O)C3)cn2)cc1Nc1cccc(-c2ncc(F)cn2)c1OC (centres unmarked) [Example K166] please. < 1 nM

Would you mind doing Cn1c(=O)n(C2CCC(=O)NC2=O)c2ccc(CCCCC(=O)N3CCC(n4cc(-c5ccc6ncc(C(=O)N[C@@H]7C[C@@H]7F)n6n5)cn4)CC3)cc21 (some centres unmarked) [Example K327] as well? > 100 nM

Now consider Cn1c(=O)n(C2CCC(=O)NC2=O)c2cccc(CCCCCCNc3cc(Nc4cccn(-c5ccccn5)c4=O)nn4c(C(=O)N[C@@H]5C[C@@H]5F)cnc34)c21 (some centres unmarked) [Example K206] . > 100 nM

Then CNc1cc(Nc2cccc(-c3ccc(CN4CCC(CCc5cccc6c5n(C)c(=O)n6C5CCC(=O)NC5=O)CC4)cn3)c2)nn2c(C(=O)N[C@@H]3C[C@@H]3F)cnc12 (some centres unmarked) [Example K507] ? 1 to 10 nM

Okay, and CNc1cc(Nc2cccc(CN3CC4(C3)CN(c3ncc(C#Cc5ccc6c(c5)n(C)c(=O)n6C5CCC(=O)NC5=O)cn3)C4)c2)nn2c(C(=O)NC3CC3)cnc12 (centres unmarked) [Example K604] ? > 100 nM

What about Cc1cc(C)cc(Nc2cc(NCCCCc3ccc4c(c3)n(C)c(=O)n4C3CCC(=O)NC3=O)c3ncc(C(=O)N[C@@H]4C[C@@H]4F)n3n2)c1 (some centres unmarked) [Example K402] ? > 100 nM

# repeat for COc1c(Nc2cc(Nc3ccc(C(=O)NCCCCc4cccc5c4n(C)c(=O)n5C4CCC(=O)NC4=O)cn3)ncc2C(=O)NC2CC2)cccc1-c1ncc(F)cn1 (centres unmarked) [Example K180] 10 to 100 nM

Values from patent US20250051338A1
